assay: Apparent permeability from apical to basolateral side in human Caco2 cells at 10 uM after 60 mins by HPLC-MS/MS analysis; assay type: ADME, cell-based; settings: Caco-2
readout: Papp A→B at 1 h, 10 µM (×10⁻⁶ cm/s)
Dear colleague, please return just the value in ×10⁻⁶ cm/s, with no unit written.

Worked examples follow.
query smiles: Cc1ccc2c(c1)C(=O)[C@]1(O)CCN(c3ccc(N)cc3)C1=N2
Papp A→B at 1 h, 10 µM / ×10⁻⁶ cm/s: 69.4
//
query smiles: Cc1ccc2c(c1)C(=O)[C@]1(O)CCN(c3ccc([N+](=O)[O-])cc3)C1=N2
Papp A→B at 1 h, 10 µM / ×10⁻⁶ cm/s: 32.5
//
query smiles: Cc1ccc2c(c1)C(=O)[C@]1(O)CCN(c3cccc(O)c3)C1=N2
Papp A→B at 1 h, 10 µM / ×10⁻⁶ cm/s: 28.5
//
query smiles: Cc1ccc2c(c1)C(=O)[C@]1(O)CCN(c3ccccc3)C1=N2
Papp A→B at 1 h, 10 µM / ×10⁻⁶ cm/s: 60.5
//
query smiles: Cc1ccc2c(c1)C(=O)[C@]1(O)CCN(c3cccc(N)c3)C1=N2
Papp A→B at 1 h, 10 µM / ×10⁻⁶ cm/s: 62.7

IN: Field request: Papp A→B at 1 h, 10 µM | item: `C=CCOc1ccc(N2CC[C@@]3(O)C(=O)c4cc(C)ccc4N=C23)cc1`
OUT: 29.7

* * *

test: Aqueous solubility at steady-state in pH 7.4 PBS at 200 uM after 24 hrs by HPLC method; assay type: physicochemical; settings: PBS, pH 7.4
readout: solubility at 24 h, 200 µM (µM)
Dear colleague, please return just the value in µM, with no unit written.

Worked examples follow.
query smiles: C=CCOc1ccc(N2CC[C@@]3(O)C(=O)c4cc(C)ccc4N=C23)cc1
endpoint unit: µM
solubility at 24 h, 200 µM: 2.75
--
query smiles: C=CCOc1cccc(N2CC[C@@]3(O)C(=O)c4cc(C)ccc4N=C23)c1
endpoint unit: µM
solubility at 24 h, 200 µM: 2.83
--
query smiles: Cc1ccc2c(c1)C(=O)[C@]1(O)CCN(c3ccc(O)cc3)C1=N2
endpoint unit: µM
solubility at 24 h, 200 µM: 82.4
--
query smiles: Cc1ccc2c(c1)C(=O)[C@]1(O)CCN(c3cccc(O)c3)C1=N2
endpoint unit: µM
solubility at 24 h, 200 µM: 193
--
query smiles: Cc1ccc2c(c1)C(=O)[C@]1(O)CCN(c3cccc(N)c3)C1=N2
endpoint unit: µM
solubility at 24 h, 200 µM: 186

// next entry
IN: Field request: solubility at 24 h, 200 µM | item: `Cc1ccc2c(c1)C(=O)[C@]1(O)CCN(c3ccc([N+](=O)[O-])cc3)C1=N2`
OUT: 31.7

* * *

experiment: Photostability of the compound in DMSO/H20 (1:1) solvent assessed as compound degradation at 100 to 600 uM under irradiation at 390 to 470 nm after mins by HPLC analysis; type: physicochemical; details: DMSO/H2O (1:1); read-out: Drug degradation
readout: degraded at up to 600 µM (%)
Dear colleague, please return just the value in %, with no unit written.

IN: Field request: degraded at up to 600 µM | item: `Cc1ccc2c(c1)C(=O)[C@]1(O)CCN(c3ccc([N+](=O)[O-])cc3)C1=N2`
OUT: 33

This collection of values is drawn from ChEMBL document CHEMBL4138080.
